Property: IC50; scope: individual compounds
species: Cavia porcellus; assay: Inhibitory concentration required to block Ca+2 induced contraction of K+ depolarized guinea pig taenia cecum; format: functional, Caecum; conditions: Cavia porcellus, Caecum

| Compound | Censoring Operator | IC50, nM |
| --- | --- | --- |
| COc1ccc(OCCCN(C)CCOc2ccc3c(c2)CCC3)c(C2Sc3ccccc3N(C)C2=O)c1 (configuration not stated) | > | 10000 |
| COc1ccc(OCCCN(C)CCOc2ccc3c(c2)OCO3)c(C2Sc3ccccc3N(C)C2=S)c1 (configuration not stated) | > | 10000 |
| COc1ccc(OCCCN(C)CCOc2ccc3c(c2)OCO3)c(C2(OC)Sc3ccccc3N(C)C2=O)c1 (configuration not stated) | = | 250 |
| COc1ccc(OCCCN(C)CCc2cc(OC)c(OC)c(OC)c2)c(C2Sc3ccccc3N(C)C2=O)c1 (configuration not stated) | = | 270 |
| COc1ccc(OCCCCN(C)CCOc2ccc3c(c2)OCO3)c(C2Sc3ccccc3N(C)C2=O)c1 (configuration not stated) | = | 170 |
| COc1ccc(OCCCN(C)CCOc2ccc3c(c2)OCO3)c(C2CN(C)c3ccccc3S2)c1 (configuration not stated) | > | 10000 |
| COc1ccc(OCCCN(C)CCOc2ccc3c(c2)OCO3)c(C2(C(C)C)Sc3ccccc3N(C)C2=O)c1 (configuration not stated) | > | 10000 |
